Tested on: castrated immature rats
Assay: In vivo anti-androgenic activity in castrated immature rats treated with testosterone propionate
Set-up: species or system rat
Settings: inhibition of TP effect (TP 0.5 mg/kg s.c. once daily for 5 days), tested compound 10-30 mg/kg p.o.
Entries annotated with measured % (Inhibition), in vivo anti-androgen activity
quantity_measured: % (Inhibition), in vivo anti-androgen activity

# compound, target_or_system, measured
measured = [
    ("Cc1nc2c3cnn(-c4nc5c(ccc6ccccc65)s4)c3ncn2n1 [Compound 10]", "castrated immature rats", "98.87%"),
    ("N#Cc1cnn(-c2nc3c(ccc4ccccc43)s2)c1N [Compound 2]", "castrated immature rats", "95.49%"),
    ("CCOC1SCC(=O)N1c1c(C#N)cnn1-c1nc2c(ccc3ccccc32)s1 (stereo not shown) [Compound 12]", "castrated immature rats", "84.65%"),
    ("N#Cc1cnn(-c2nc3c(ccc4ccccc43)s2)c1/N=C\\NN [Compound 9]", "castrated immature rats", "86.56%"),
]

###

IC50 overview
Molecular target: UniProt P10275
Test: In vitro androgen receptor antagonistic activity, DHT-induced MMTV-luciferase reporter assay in AR/CHO#3 cells
Conditions: 0.3 nM DHT, AR/CHO#3 cells normalised to SV/CHO#10
Procedure: Chinese Hamster Ovary (CHO) Cells Stably Transfected with Human Androgen Receptor Gene and Mouse Mammary Tumor Virus (MMTV)-Luciferase Reporter Gene or SV40-Luciferase Gene: CHO cells were maintained in alpha-modified Eagle’s medium supplemented with 10% fetal bovine serum (FBS). The culture medium of neomycin-resistant clone cells was supplemented with 10% dextran-coated charcoal-stripped FBS (DCC-FBS) and 500 mg/mL of neomycin. […]

# molecule, target_or_system, IC50, nM
records = [
    ("Nc1n[nH]c2c1cnn2-c1nc2c(ccc3ccccc32)s1", "UniProt P10275", 34),
    ("Nc1ncnc2c1cnn2-c1nc2c(ccc3ccccc32)s1", "UniProt P10275", 37),
    ("CCOC1SCC2NC(=O)c3cnn(-c4nc5c(ccc6ccccc65)s4)c3N21 (centres unmarked)", "UniProt P10275", 29),
    ("N#Cc1cnn(-c2nc3c(ccc4ccccc43)s2)c1/N=C\\NN", "UniProt P10275", 75),
    ("CCO/C=N\\c1c(C#N)cnn1-c1nc2c(ccc3ccccc32)s1", "UniProt P10275", 77),
    ("N=c1sc(=S)[nH]c2c1cnn2-c1nc2c(ccc3ccccc32)s1", "UniProt P10275", 44),
    ("Nc1nc(=S)[nH]c2c1cnn2-c1nc2c(ccc3ccccc32)s1", "UniProt P10275", 41),
    ("Cc1nc2c3cnn(-c4nc5c(ccc6ccccc65)s4)c3ncn2n1", "UniProt P10275", 23),
    ("N#Cc1cnn(-c2nc3c(ccc4ccccc43)s2)c1N", "UniProt P10275", 31),
    ("CCOC1SCC(=O)N1c1c(C#N)cnn1-c1nc2c(ccc3ccccc32)s1 (centres unmarked)", "UniProt P10275", 91),
    ("N=c1c2cnn(-c3nc4c(ccc5ccccc54)s3)c2ncn1NC(=O)c1ccccc1", "UniProt P10275", 39),
]

###

Target: mutant AR in LNCaP cells (Homo sapiens, UniProt P10275, T878A)
Construct: endogenous in cells
Sequence (P10275 1-920 T878A): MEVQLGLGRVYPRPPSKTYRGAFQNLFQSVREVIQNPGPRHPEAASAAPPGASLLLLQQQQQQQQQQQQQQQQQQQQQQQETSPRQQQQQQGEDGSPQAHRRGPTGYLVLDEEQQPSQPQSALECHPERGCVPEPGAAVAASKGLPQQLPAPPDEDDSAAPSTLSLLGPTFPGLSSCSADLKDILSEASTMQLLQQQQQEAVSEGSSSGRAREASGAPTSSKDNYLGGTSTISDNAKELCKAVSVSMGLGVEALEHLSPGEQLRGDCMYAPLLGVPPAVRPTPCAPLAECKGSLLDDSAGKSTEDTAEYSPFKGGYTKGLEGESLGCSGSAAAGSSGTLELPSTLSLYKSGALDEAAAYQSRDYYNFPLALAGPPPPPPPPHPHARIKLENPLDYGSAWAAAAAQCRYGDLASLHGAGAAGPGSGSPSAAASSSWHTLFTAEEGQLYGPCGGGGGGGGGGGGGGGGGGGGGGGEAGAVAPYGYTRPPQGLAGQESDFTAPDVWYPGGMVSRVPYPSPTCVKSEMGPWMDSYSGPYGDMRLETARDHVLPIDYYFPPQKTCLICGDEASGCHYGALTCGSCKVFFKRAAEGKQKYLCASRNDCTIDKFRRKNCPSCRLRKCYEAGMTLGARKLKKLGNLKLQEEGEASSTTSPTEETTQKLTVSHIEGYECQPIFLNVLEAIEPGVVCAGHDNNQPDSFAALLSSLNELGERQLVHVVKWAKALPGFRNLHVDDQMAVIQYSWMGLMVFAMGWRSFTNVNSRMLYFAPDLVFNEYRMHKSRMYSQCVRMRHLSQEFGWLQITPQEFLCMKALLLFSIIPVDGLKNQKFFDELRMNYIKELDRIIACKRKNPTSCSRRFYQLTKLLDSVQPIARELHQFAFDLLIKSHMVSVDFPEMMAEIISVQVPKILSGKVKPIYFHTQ
Test: Anti-prostate cancer screening, anti-androgenic bioassay (AR transactivation) in LNCaP cells
Conditions: 1 nM DHT, 24 h
pIC50: −log10 of the molar value.
quantity_measured: pIC50

# compound, target_or_system, measured
data = [
    ("Cc1nc2c3cnn(-c4nc5c(ccc6ccccc65)s4)c3ncn2n1", "mutant AR in LNCaP cells (Homo sapiens, UniProt P10275, T878A)", 7.36),
    ("N#Cc1cnn(-c2nc3c(ccc4ccccc43)s2)c1/N=C\\NN", "mutant AR in LNCaP cells (Homo sapiens, UniProt P10275, T878A)", 7.12),
    ("Nc1n[nH]c2c1cnn2-c1nc2c(ccc3ccccc32)s1", "mutant AR in LNCaP cells (Homo sapiens, UniProt P10275, T878A)", 7.25),
    ("N=c1c2cnn(-c3nc4c(ccc5ccccc54)s3)c2ncn1NC(=O)c1ccccc1", "mutant AR in LNCaP cells (Homo sapiens, UniProt P10275, T878A)", 7.21),
    ("CCO/C=N\\c1c(C#N)cnn1-c1nc2c(ccc3ccccc32)s1", "mutant AR in LNCaP cells (Homo sapiens, UniProt P10275, T878A)", 7.10),
    ("CCOC1SCC(=O)N1c1c(C#N)cnn1-c1nc2c(ccc3ccccc32)s1 (centres unmarked)", "mutant AR in LNCaP cells (Homo sapiens, UniProt P10275, T878A)", 7.10),
    ("Nc1ncnc2c1cnn2-c1nc2c(ccc3ccccc32)s1", "mutant AR in LNCaP cells (Homo sapiens, UniProt P10275, T878A)", 7.23),
    ("Nc1nc(=S)[nH]c2c1cnn2-c1nc2c(ccc3ccccc32)s1", "mutant AR in LNCaP cells (Homo sapiens, UniProt P10275, T878A)", 7.19),
    ("N=c1sc(=S)[nH]c2c1cnn2-c1nc2c(ccc3ccccc32)s1", "mutant AR in LNCaP cells (Homo sapiens, UniProt P10275, T878A)", 7.14),
    ("N#Cc1cnn(-c2nc3c(ccc4ccccc43)s2)c1N", "mutant AR in LNCaP cells (Homo sapiens, UniProt P10275, T878A)", 7.29),
    ("CCOC1SCC2NC(=O)c3cnn(-c4nc5c(ccc6ccccc65)s4)c3N21 (centres unmarked)", "mutant AR in LNCaP cells (Homo sapiens, UniProt P10275, T878A)", 7.30),
]
